Data origin: PubChem BioAssay (NCI)

- System: NCI-H226 lung
- Measurement protocol: NCI tumour cell line growth inhibition, 48 h
Listed here are compounds together with their documented TGI.
Measured property: TGI (µM)

[
  {
    "Compound": "CC1=C(C(=O)OCCO[N+](=O)[O-])C(c2ccccc2C(F)(F)F)C(C(=O)OC(C)C)=C(C)N1 (configuration not stated)",
    "Target of assay": "NCI-H226 lung",
    "Reading qualifier": "=",
    "Observed value": 27.4
  },
  {
    "Compound": "C[C@@]12CC[C@H]3[C@@H]4CCC(=O)N[C@@]4(C)CC[C@@H]3[C@@]1(C)CC[C@H](OC(=O)Cc1ccc(N(CCCl)CCCl)cc1)C2",
    "Target of assay": "NCI-H226 lung",
    "Reading qualifier": "=",
    "Observed value": 33.2
  },
  {
    "Compound": "Cc1cc(S(=O)(=O)Nc2nc3ccsc3c(=O)n2Cc2ccco2)c(S)cc1Cl",
    "Target of assay": "NCI-H226 lung",
    "Reading qualifier": ">",
    "Observed value": 100
  },
  {
    "Compound": "O=C(Nc1cnn2ccc(N3CCC[C@@H]3c3cc(F)ccc3F)nc12)N1CC[C@H](O)C1",
    "Target of assay": "NCI-H226 lung",
    "Reading qualifier": ">",
    "Observed value": 100
  },
  {
    "Compound": "O=C(O)c1cc2ccccc2c(N=Nc2c([N+](=O)[O-])cc([N+](=O)[O-])cc2S(=O)(=O)O)c1O",
    "Target of assay": "NCI-H226 lung",
    "Reading qualifier": ">",
    "Observed value": 100
  },
  {
    "Compound": "COC(=O)c1ccc2n1C1CC3CC(CC2C3)C1",
    "Target of assay": "NCI-H226 lung",
    "Reading qualifier": ">",
    "Observed value": 100
  },
  {
    "Compound": "COc1ccc(CNc2nc(NCc3ccc(OC)cc3)nc(Nc3ccccc3)n2)cc1",
    "Target of assay": "NCI-H226 lung",
    "Reading qualifier": ">",
    "Observed value": 100
  },
  {
    "Compound": "COc1ccc(C(=O)N2CCN(c3ccc4c(c3)OCC(=O)N4)CC2)cc1",
    "Target of assay": "NCI-H226 lung",
    "Reading qualifier": ">",
    "Observed value": 100
  },
  {
    "Compound": "O=C(O)CCC1COc2ccccc2O1 (configuration not stated)",
    "Target of assay": "NCI-H226 lung",
    "Reading qualifier": ">",
    "Observed value": 10
  },
  {
    "Compound": "Cc1ccc(NC(=O)CC(=O)n2nc(-c3ccccc3)c(N=Nc3ccc(Cl)cc3)c2-c2ccccc2)cc1",
    "Target of assay": "NCI-H226 lung",
    "Reading qualifier": ">",
    "Observed value": 100
  },
  {
    "Compound": "CCCCCCCCCCCCCC/C(C(=O)OC)=C(/O)C(=O)OCC",
    "Target of assay": "NCI-H226 lung",
    "Reading qualifier": ">",
    "Observed value": 100
  },
  {
    "Compound": "Cc1cc(C)c2c(n1)S(=O)(=O)N(CCCN1CCN(c3cccc(C(F)(F)F)c3)CC1)/C(=C(\\O)c1ccccc1)C2=O",
    "Target of assay": "NCI-H226 lung",
    "Reading qualifier": "=",
    "Observed value": 7.92
  },
  {
    "Compound": "CCOc1ccccc1NC(=O)CCc1nnc2s/c(=C\\CCc3ccccc3)c(=O)n12",
    "Target of assay": "NCI-H226 lung",
    "Reading qualifier": ">",
    "Observed value": 100
  },
  {
    "Compound": "O=C1C=CC(=O)C1(Br)Br",
    "Target of assay": "NCI-H226 lung",
    "Reading qualifier": "=",
    "Observed value": 38.2
  },
  {
    "Compound": "Cn1c(C(C#N)c2cc(Cl)ncn2)nc2ccccc21 (configuration not stated)",
    "Target of assay": "NCI-H226 lung",
    "Reading qualifier": ">",
    "Observed value": 100
  },
  {
    "Compound": "C[n+]1c2ccccc2c(CNC(CCC(N)=O)C(=O)O)c2ccccc21 (configuration not stated)",
    "Target of assay": "NCI-H226 lung",
    "Reading qualifier": "=",
    "Observed value": 18.3
  },
  {
    "Compound": "C=C(CN1CCN(c2cccc(C(F)(F)F)c2)CC1)c1ccc(C(=O)Nc2ccccc2N)cc1",
    "Target of assay": "NCI-H226 lung",
    "Reading qualifier": "=",
    "Observed value": 20.1
  },
  {
    "Compound": "CN1N=C2c3ccccc3CC[C@H]2C1c1ccccc1 (some centres not stated)",
    "Target of assay": "NCI-H226 lung",
    "Reading qualifier": ">",
    "Observed value": 100
  },
  {
    "Compound": "N#Cc1c[nH]n2ccnc12",
    "Target of assay": "NCI-H226 lung",
    "Reading qualifier": ">",
    "Observed value": 100
  },
  {
    "Compound": "COc1ccc2nc(NCCCNCCO)c3sc4ccc(F)cc4c(=O)c3c2c1",
    "Target of assay": "NCI-H226 lung",
    "Reading qualifier": "=",
    "Observed value": 3.49
  },
  {
    "Compound": "CCCCCCCCCCCCCCCCCCNc1ccn(C2OC(COP(=O)(O)O)C(O)C2O)c(=O)n1 (configuration not stated)",
    "Target of assay": "NCI-H226 lung",
    "Reading qualifier": ">",
    "Observed value": 100
  },
  {
    "Compound": "Oc1ccc(-c2nc3cc(C(F)(F)F)ccc3n2CC2CCCN3CCCCC23)cc1 (configuration not stated)",
    "Target of assay": "NCI-H226 lung",
    "Reading qualifier": "=",
    "Observed value": 32.2
  },
  {
    "Compound": "Cn1c(N2CCCC2)c(C=O)c(=O)n(C)c1=O",
    "Target of assay": "NCI-H226 lung",
    "Reading qualifier": ">",
    "Observed value": 100
  },
  {
    "Compound": "COc1c2ccccc2c(O)c2c(=O)c(C(=O)O)cn(C)c12",
    "Target of assay": "NCI-H226 lung",
    "Reading qualifier": ">",
    "Observed value": 100
  },
  {
    "Compound": "Cc1ccc(C(=O)CC(Cl)=C(Cl)Cl)cc1",
    "Target of assay": "NCI-H226 lung",
    "Reading qualifier": ">",
    "Observed value": 100
  },
  {
    "Compound": "COc1cccc(/C=C/C(=O)c2ccc(Cl)cc2Cl)c1OC",
    "Target of assay": "NCI-H226 lung",
    "Reading qualifier": "=",
    "Observed value": 29.6
  },
  {
    "Compound": "COc1cc2cc(Oc3ccc(NC(=O)Nc4ccccc4)cc3)c(C)nc2cc1OCCN1CCCCC1",
    "Target of assay": "NCI-H226 lung",
    "Reading qualifier": "=",
    "Observed value": 12
  },
  {
    "Compound": "O=c1ccc2ccccc2o1",
    "Target of assay": "NCI-H226 lung",
    "Reading qualifier": ">",
    "Observed value": 100
  },
  {
    "Compound": "Cc1cc(=O)oc2cc(OC(=O)Nc3ccc(Cl)c(Cl)c3)ccc12",
    "Target of assay": "NCI-H226 lung",
    "Reading qualifier": "=",
    "Observed value": 46.6
  },
  {
    "Compound": "N#C/C(=C/C=C(\\Cl)c1ccc(Cl)cc1)C(N)=O",
    "Target of assay": "NCI-H226 lung",
    "Reading qualifier": "=",
    "Observed value": 13.9
  },
  {
    "Compound": "NC(=O)c1n[nH]n(-c2ccccc2)c1=O",
    "Target of assay": "NCI-H226 lung",
    "Reading qualifier": ">",
    "Observed value": 100
  },
  {
    "Compound": "COC(=O)NCCc1[nH]nc2c1C(=O)C=C(OC)C2=O",
    "Target of assay": "NCI-H226 lung",
    "Reading qualifier": "=",
    "Observed value": 50.5
  },
  {
    "Compound": "FC(F)(F)c1ccc2c(c1)nc(Cc1ccccc1)n2C[C@@H]1CCCN2CCCCC12 (some centres not stated)",
    "Target of assay": "NCI-H226 lung",
    "Reading qualifier": "=",
    "Observed value": 40.4
  },
  {
    "Compound": "O=C(O)Cc1ccc(N2N=C(c3ccccc3)CC2=O)cc1",
    "Target of assay": "NCI-H226 lung",
    "Reading qualifier": ">",
    "Observed value": 100
  },
  {
    "Compound": "C/C=C(/C)C(=O)O[C@@H]1c2c(C)coc2C[C@H]2CC[C@H](O)[C@H](C)[C@]21C",
    "Target of assay": "NCI-H226 lung",
    "Reading qualifier": ">",
    "Observed value": 100
  },
  {
    "Compound": "NC(=O)c1[nH]nc(C2OC(CO)C(O)C2O)c1O (configuration not stated)",
    "Target of assay": "NCI-H226 lung",
    "Reading qualifier": "=",
    "Observed value": 2220
  },
  {
    "Compound": "CCCCCCCCOc1ccc(/C=N/Nc2cc(C)nc3ccc(Cl)cc23)cc1",
    "Target of assay": "NCI-H226 lung",
    "Reading qualifier": "=",
    "Observed value": 3.62
  },
  {
    "Compound": "O=C(CCCCCCCCC(=O)NN1C(=O)/C(=C\\c2ccc(O)c(O)c2)SC1c1c(O)ccc2ccccc12)NN1C(=O)C(=Cc2ccc(O)c(O)c2)SC1c1c(O)ccc2ccccc12 (configuration not stated)",
    "Target of assay": "NCI-H226 lung",
    "Reading qualifier": ">",
    "Observed value": 100
  },
  {
    "Compound": "COc1cc2c3c(n(CCCN4CCN(C)CC4)c(=O)c2cc1OC)-c1cc2c(cc1C3=O)OCO2",
    "Target of assay": "NCI-H226 lung",
    "Reading qualifier": "=",
    "Observed value": 31
  },
  {
    "Compound": "Cc1ccc(NS(=O)(=O)c2cc(C(C)(C)C)ccc2OCCOCCOCCOc2ccc(C(C)(C)C)cc2S(=O)(=O)Nc2ccc(C)cc2)cc1",
    "Target of assay": "NCI-H226 lung",
    "Reading qualifier": ">",
    "Observed value": 100
  },
  {
    "Compound": "COC(=O)C1=NN2c3ccccc3C(=O)OCCC2C1 (configuration not stated)",
    "Target of assay": "NCI-H226 lung",
    "Reading qualifier": ">",
    "Observed value": 100
  },
  {
    "Compound": "C=C1CC/C=C(/C(=O)O)CC[C@H]2[C@@H]1CC2(C)C",
    "Target of assay": "NCI-H226 lung",
    "Reading qualifier": ">",
    "Observed value": 100
  }
]
